Kindly supply the reported recombinant UMI read abundance (log10) values for the records listed here.
- protocol.summary: recombinant UMI read abundance after kanamycin selection (control-corrected) (log10(CPM+1)); higher = more efficient recombination; extreme values may be limits of the assay; sequences stand for … in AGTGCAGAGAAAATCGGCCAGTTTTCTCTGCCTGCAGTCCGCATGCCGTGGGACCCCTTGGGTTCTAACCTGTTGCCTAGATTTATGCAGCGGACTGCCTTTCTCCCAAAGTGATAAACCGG…AGGTTGGTTTCACT; site = the 11-nt donor;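 note: IS621 bridge recombinase in Escherichia coli cells against a fixed T5 target plasmid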
Returns: the value as a bare number; no unit string appended.

Return recombinant UMI read abundance (log10) (reported value) for this sequence: TGTACCCCATGGACCGGTTTTCCCGGTAATCCGTATTTGAC (site TGTACACCTGT)
0

Input CGCCTTACATGGACCGGTTTTCCCGGTAATCCGTATTTGCT (site CGCCCTACTAG) , output reported recombinant UMI read abundance (log10).
0.675

Please give measured recombinant UMI read abundance (log10) of the following entry: CTAGGGTCATGGACCGGTTTTCCCGGTAATCCGTATTTGAC (site CTAGTATCTGT)
1.43

Name the recorded recombinant UMI read abundance (log10) of the sequence listed here: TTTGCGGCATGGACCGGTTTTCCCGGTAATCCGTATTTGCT (site GTTGCGGCTAG)
0.00615

Retrieve recombinant UMI read abundance (log10) measured for GAGCGTTCATGGACCGGTTTTCCCGGTAATCCGTATTTGAA (site GAGCGTTCTTT) and print it.
2.83

Please look at this sequence and report its recombinant UMI read abundance (log10): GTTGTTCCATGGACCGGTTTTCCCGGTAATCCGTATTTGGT (site GGTGTTCCTAC)
0.0704

Fill in reported recombinant UMI read abundance (log10) for this entry: CTTCAGCCATGGACCGGTTTTCCCGGTAATCCGTATTTGGA (site CTTCAGCCTTC)
0

Please give the documented recombinant UMI read abundance (log10) of CAAGTCACATGGACCGGTTTTCCCGGTAATCCGTATTTGGT (site CAAGTCACTTC)
0.155

Look up recombinant UMI read abundance (log10) of CCAGTAGCATGGACCGGTTTTCCCGGTAATCCGTATTTGAC (site CTAGTATCTGT) and report it.
0

Recall and state the measured recombinant UMI read abundance (log10) for CGGCACTCATGGACCGGTTTTCCCGGTAATCCGTATTTGTA (site CGGCACTCTTA) .
3.03

Please supply the value of reported recombinant UMI read abundance (log10) for the item GTGGCTGCATGGACCGGTTTTCCCGGTAATCCGTATTTGAT (site GTGGCTGCTAT)
2.18

Tell me its recombinant UMI read abundance (log10) given CCGGGGCCATGGACCGGTTTTCCCGGTAATCCGTATTTGGT (site CCGGGGCCTAC) as the entry.
0.0146

Tell me recombinant UMI read abundance (log10) reported for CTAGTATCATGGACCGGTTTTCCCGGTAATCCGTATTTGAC (site CTATTATCTGT)
0.701

Query recombinant UMI read abundance (log10) for TAACGGTCATGGACCGGTTTTCCCGGTAATCCGTATTTGGC (site TAACGGTCTGC)
2.67

Hello, please tell me recorded recombinant UMI read abundance (log10) for this one: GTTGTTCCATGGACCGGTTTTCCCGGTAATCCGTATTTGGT (site GTTGTTCCTGC)
0.388

Write down recombinant UMI read abundance (log10) measured for item CTTCTCTCATGGACCGGTTTTCCCGGTAATCCGTATTTGTC (site CTTCTCTCTCA)
0.0104

Name the recorded recombinant UMI read abundance (log10) of the item TCCACCGCATGGACCGGTTTTCCCGGTAATCCGTATTTGGG (site TCCACCGCTCG) in your answer.
0.0231

Supply recorded recombinant UMI read abundance (log10) for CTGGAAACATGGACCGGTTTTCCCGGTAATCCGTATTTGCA (site CTGGAAACTTT) here.
2.16

Determine its reported recombinant UMI read abundance (log10): GGACGGCCATGGACCGGTTTTCCCGGTAATCCGTATTTGCG (site GGACGGCCTCG)
0.137

Supply recombinant UMI read abundance (log10) value. Item: CCCTATCCATGGACCGGTTTTCCCGGTAATCCGTATTTGCC (site CCCTACCCTGG)
0

Kindly indicate its recorded recombinant UMI read abundance (log10). Item: TCTGCAGCATGGACCGGTTTTCCCGGTAATCCGTATTTGAA (site TCTGCAGCTTT)
0.00333

Answer with the recorded recombinant UMI read abundance (log10) of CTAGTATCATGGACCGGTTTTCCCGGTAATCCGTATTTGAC (site CCAGTTTCTGT) only.
0

Consider the sequence ACAGCATCATGGACCGGTTTTCCCGGTAATCCGTATTTGCA (site ACAGTATCTTG) and give its recorded recombinant UMI read abundance (log10).
1.73

For GGATCGACATGGACCGGTTTTCCCGGTAATCCGTATTTGTT (site AGATCGACTAA) , write its recombinant UMI read abundance (log10).
0.0171

Please report recombinant UMI read abundance (log10) for the following sequence: TAGGACTCATGGACCGGTTTTCCCGGTAATCCGTATTTGCG (site TAGGAGTCTCG)
1.05

Complete the entry with recombinant UMI read abundance (log10) for GCGCTAACATGGACCGGTTTTCCCGGTAATCCGTATTTGAC (site GCGCTAACTGT)
2.61

Item AGCCTTCCATGGACCGGTTTTCCCGGTAATCCGTATTTGAC (site AGCCTTACTGT) : provide recombinant UMI read abundance (log10)
0

Supply recorded recombinant UMI read abundance (log10) for TAGCTAGCATGGACCGGTTTTCCCGGTAATCCGTATTTGAC (site TAGCTAGCTCT) here.
0

Output measured recombinant UMI read abundance (log10) for this item: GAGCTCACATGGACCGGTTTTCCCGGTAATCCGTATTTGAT (site GAGCTCACTCT)
0.206

This collection of values is drawn from the supplement of paper PMC11208160.
